Biological target: Serotonin 3 (5-HT3) receptor (Rattus norvegicus, UniProt P35563+Q9JJ16)
Sequence (P35563 whole entry): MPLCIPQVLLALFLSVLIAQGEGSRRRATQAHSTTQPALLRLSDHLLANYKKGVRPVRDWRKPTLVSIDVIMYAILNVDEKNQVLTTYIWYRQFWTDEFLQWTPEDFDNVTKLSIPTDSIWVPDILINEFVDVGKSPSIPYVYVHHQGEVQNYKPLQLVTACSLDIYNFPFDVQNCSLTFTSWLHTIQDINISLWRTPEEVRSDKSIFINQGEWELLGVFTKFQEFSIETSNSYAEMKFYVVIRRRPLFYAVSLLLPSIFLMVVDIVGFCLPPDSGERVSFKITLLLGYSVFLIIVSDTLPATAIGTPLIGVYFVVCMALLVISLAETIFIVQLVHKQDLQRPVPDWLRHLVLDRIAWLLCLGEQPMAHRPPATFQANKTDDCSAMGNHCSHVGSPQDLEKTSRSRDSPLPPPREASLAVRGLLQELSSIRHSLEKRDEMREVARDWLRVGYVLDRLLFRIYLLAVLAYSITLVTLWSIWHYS
Sequence (Q9JJ16 whole entry): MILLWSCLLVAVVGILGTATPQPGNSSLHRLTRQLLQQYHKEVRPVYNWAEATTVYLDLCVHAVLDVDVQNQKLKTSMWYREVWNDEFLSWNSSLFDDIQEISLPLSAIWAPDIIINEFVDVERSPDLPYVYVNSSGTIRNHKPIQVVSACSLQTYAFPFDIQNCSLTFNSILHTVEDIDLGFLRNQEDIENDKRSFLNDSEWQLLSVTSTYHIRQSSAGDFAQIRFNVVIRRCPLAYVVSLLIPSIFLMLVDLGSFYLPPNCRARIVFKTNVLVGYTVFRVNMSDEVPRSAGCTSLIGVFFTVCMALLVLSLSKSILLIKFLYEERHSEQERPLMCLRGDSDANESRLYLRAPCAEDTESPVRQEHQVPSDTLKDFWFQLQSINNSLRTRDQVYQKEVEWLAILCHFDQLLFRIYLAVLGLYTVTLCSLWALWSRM
Experiment: Binding affinity towards 5-hydroxytryptamine 3 receptor
pIC50: −log10 of the molar value.
Binary call on pIC50: Criterion met from 7 upward, Criterion not met beneath that.

Does the compound CCCN1CCN(c2nc3ccsc3n3cccc23)CC1 have recorded pIC50 that is 7 or more?
Criterion met

Given the entry Clc1ccc(C(c2ccccc2)N2CCN(c3nc4ccsc4n4cccc34)CC2)cc1 (stereo unspecified) , answer whether its pIC50 meets or surpasses 7.
Criterion not met

Reported pIC50 reaches at least 7 for CN1CCN(c2nc3sccc3n3cccc23)CC1 ?
Criterion not met

Answer whether pIC50 of FC(F)(F)c1cccc(N2CCN(c3nc4sc(-c5ccccc5)cc4n4cccc34)CC2)c1 is greater than or equal to 7.
Criterion not met

Item c1cc2c(N3CCNCC3)nc3ccsc3n2c1 with pIC50 of 7 or above?
Criterion met

Does pIC50 meet or surpass 7 for c1ccc(C2CCN(c3nc4ccsc4n4cccc34)CC2)cc1 ?
Criterion not met
